Target: Eukaryotic translation initiation factor 2 subunit 1 (Homo sapiens)
Assay: Activation of eIF2alpha (unknown origin) assessed as fold stimulation ATF-4 surrogate eIF2alpha phosphorylation at 5 uM cell based Dual luciferase reporter assay
Details: filed as activator
MEASURED_PARAMETER: fold change (FC)

Hi! Can you tell me fold change (FC) for each of these compounds?
1. N#Cc1cc(NC(=O)NC2CCC(Oc3ccc(C(F)(F)F)cc3)CC2)cc(C(F)(F)F)c1 (stereo unspecified)
2. N#Cc1cc(F)cc(NC(=O)N[C@H]2CC[C@H](Oc3ccc(C(F)(F)F)cc3)C2)c1
3. N#Cc1cc(NC(=O)NC2CCC(Oc3ccc(C(F)(F)F)cc3)CC2)ccc1F (stereo unspecified)

1: 13.8; 2: 8; 3: 6.1
